Here, each record is paired with measured T/C data.
# Tested on: L1210 leukemia ip in BDF1 mice, survival T/C
# METHOD: NCI In Vivo Anticancer Drug Screen. Data for tumor model L1210 Leukemia (intraperitoneal) in B6D2F1 (BDF1) mice
# CONDITION_SET: endpoint: mean survival time; dose: 400.0 mg/kg/injection; schedule: Q01DX001 (ip); vehicle: carboxymethylcellulose (CMC); higher = longer survival
Toxic doses and inconclusive results are not listed.

- COMPOUND: "O=C1c2ccccc2-c2cc(Br)c([N+](=O)[O-])c(Br)c21"
  MEASUREMENT_LABEL: "T/C"
  ASSAY_VALUE: "102 % of control"
- COMPOUND: "CC(=O)Nc1ccc2c(c1)Cc1cc(NC=O)ccc1-2"
  MEASUREMENT_LABEL: "T/C"
  ASSAY_VALUE: "101 % of control"
- COMPOUND: "Cc1ccc(C(C)CC(=O)O)cc1 (centres undefined)"
  MEASUREMENT_LABEL: "T/C"
  ASSAY_VALUE: "93 % of control"
- COMPOUND: "CCOC(=O)C(Cc1ccc(O)cc1)Nc1nc2ccccc2o1 (centres undefined)"
  MEASUREMENT_LABEL: "T/C"
  ASSAY_VALUE: "96 % of control"
- COMPOUND: "C(=N/N=C/c1ccccn1)/c1cccnc1"
  MEASUREMENT_LABEL: "T/C"
  ASSAY_VALUE: "96 % of control"

Now for a further compound.
Incoming: GET /values?readout=T/C&item= CC(Br)(C(CC(=O)C1CC1)c1ccccc1)[N+](=O)[O-] (centres undefined)
Outgoing: 95 % of control
